- target-system: AxCT mask27 EpCAM H90.2 L040 version 1
Can you tell me Percent cleavage for the items I'm about to list?
Provide only the numeric value, understood in %.

Prompt: Reported Percent cleavage for Matriptase (protein) VVGGTDADEGEWPWQVSLHALGQGHICGASLISPNWLVSAAHCYIDDRGFRYSDPTQWTAFLGLHDQSQRSAPGVQERRLKRIISHPFFNDFTFDYDIALLELEKPAEYSSMVRPICLPDASHVFPAGKAIWVTGWGHTQYGGTGALILQKGEIRVINQTTCENLLPQQITPRMMCVGFLSGGVDSCQGDSGGPLSSVEADGRIFQAGVVSWGDGCAQRNKPGVYTRLPLFRDWIKENTGV : what is it?
Response: 93

Prompt: Another protein: Neutrophil Elastase (protein) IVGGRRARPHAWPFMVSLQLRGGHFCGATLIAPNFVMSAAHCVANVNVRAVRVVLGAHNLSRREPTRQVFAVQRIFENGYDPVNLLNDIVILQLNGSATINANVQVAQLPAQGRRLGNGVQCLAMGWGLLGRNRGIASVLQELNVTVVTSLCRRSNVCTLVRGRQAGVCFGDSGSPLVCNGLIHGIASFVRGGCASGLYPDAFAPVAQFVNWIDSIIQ
Response: 9

Prompt: Another protein: Cathepsin G (protein) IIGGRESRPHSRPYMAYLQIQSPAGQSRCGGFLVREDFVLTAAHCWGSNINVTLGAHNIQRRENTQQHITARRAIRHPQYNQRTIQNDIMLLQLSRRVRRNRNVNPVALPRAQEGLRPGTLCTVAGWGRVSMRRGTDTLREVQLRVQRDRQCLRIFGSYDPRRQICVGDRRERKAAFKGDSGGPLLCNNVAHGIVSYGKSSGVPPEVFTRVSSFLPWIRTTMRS
Response: 0

Prompt: Another protein: MMP-12 (protein) GPVWRKHYITYRINNYTPDMNREDVDYAIRKAFQVWSNVTPLKFSKINTGMADILVVFARGAHGDFHAFDGKGGILAHAFGPGSGIGGDAHFDEDEFWTTHSGGTNLFLTAVHEIGHSLGLGHSSDPKAVMFPTYKYVDINTFRLSADDIRGIQSLYGDPKENQRLPNPDNSEPALCDPNLSFDAVTTVGNKIFFFKDRFFWLKVSERPKTSVNLISSLWPTLPSGIEAAYEIEARNQVFLFKDDKYWLISNLRPEPNYPKSIHSFGFPNFVKKIDAAVFNPRFYRTYFFVDNQYWRYDERRQMMDPGYPKLITKNFQGIGPKIDAVFYSKNKYYYFFQGSNQFEYDFLLQRITKTLKSNSWFGC
Response: 0
